Below, each of the compounds is paired with its reported composite z-score value.
- test_description: compound binding in COS7 lysate, probe aLAP1, primary screen, cell lysate, small-molecule microarray (AID 1124);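 note: lysate comes from COS7 cells expressing LAP1 and is applied at 0.3 µg/mL; score merges spot fluorescence near 667 nm with signal-to-noise over triplicate slides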
- condition_notes: probe aLAP1, fluorescence, higher = more signal
Number only, no unit.

Using the record for `COCCOC(=O)N1C(=O)[C@@]2(c3cc(C#CC4(O)CCCCCC4)ccc31)[C@H](c1ccc(OCCO)cc1)N1[C@H](c3ccccc3)[C@H](c3ccccc3)OC(=O)[C@H]1[C@@H]2C(=O)NC[C@H](O)c1ccccc1` , report its composite z-score.
0.288

Using the record for `CC(CCC(=O)OC[C@H]1O[C@H](C#Cc2ccccc2)C=C[C@@H]1Oc1ccc(C)cc1)=NOC[C@@H](O)[C@H]1O[C@@H]2OC(C)(C)O[C@@H]2[C@H]1O` , report its composite z-score.
0.137

---
Using the record for `CC(=O)C[C@H](O)[C@@H](NC(=O)OC(C)(C)C)C(C)C` , report its composite z-score.
-0.286

Using the record for CC(CCN1CCc2nc(-c3ccccc3)c(-c3ccccc3)cc2C1)=NOC(C)CN1CCCCc2nc(C)c(C)cc21 (centres undefined) , report its composite z-score.
0.154

Using the record for `CC(C)NC(=O)[C@@H]1c2ccccc2C(=O)N(CC23CC4CC(CC(C4)C2)C3)[C@H]1c1ccc(CO)cc1` , report its composite z-score.
0.397

Using the record for `CC(C)(C)OC(=O)CC[C@]1(C(N)=O)COC(c2ccc(OCCCO)cc2)=N1` , report its composite z-score.
1.44

Using the record for `O=C1C[C@@H](O)[C@@H](O)[C@@H]2[C@@H]3C(=O)N(c4ccc(F)cc4F)C(=O)[C@@H]3CC[C@@H]12` , report its composite z-score.
0.495

---

Below, each of the compounds is paired with its reported z-score value.
- test_description: HepG2 liver cancer cell viability effects, profiling panel, resazurin fluorescence, 24 h, PK04 Diversity Set (AID 1172); note: test concentration not given here
- condition_notes: higher = more signal
Number only, no unit.

Before answering, review these 4 worked examples.
Using the record for `COc1cccc([C@@H]2Oc3ccc(Br)cc3C(=O)[C@H]2O)c1` , report its z-score.
-0.41

Using the record for `O=C1C[C@@H](O)[C@@H](O)[C@@H]2[C@@H]3C(=O)N(c4ccc(F)cc4F)C(=O)[C@@H]3CC[C@@H]12` , report its z-score.
0.685

Using the record for `O=C1C[C@@H](O)[C@@H](O)[C@@H]2[C@@H]3C(=O)N(Cc4ccc5c(c4)OCO5)C(=O)[C@@H]3CC[C@@H]12` , report its z-score.
0.227

Using the record for `CCN1C(=O)[C@H]2[C@H]3[C@H](O)[C@H](O)CC(=NOCC=C(C)CCC=C(C)C)[C@H]3CC[C@H]2C1=O` , report its z-score.
-0.337

---
Using the record for `CC(=O)C[C@H](O)[C@@H](NC(=O)OC(C)(C)C)C(C)C` , report its z-score.
-0.519

Using the record for `O=C(CS)NCCCCCNC(=O)[C@H]1C[C@H]2C(=O)N3CCC[C@H]3C(=O)N2[C@H]1c1cccc(OCCO)c1` , report its z-score.
0.0716

Using the record for `O=C1O[C@@H](c2ccccc2)[C@@H](c2ccccc2)N2[C@@H](c3ccc(OCCO)cc3)[C@]3(C(=O)Nc4ccc(C#CCCO)cc43)[C@@H](C(=O)N3CCCCCCC3)[C@H]12` , report its z-score.
0.0125

---

- Test system: Human papillomavirus type 1a E7 protein (residues 1-88)
- test_description: HPV1a E7 small-molecule binders, primary screen, biochemical, small-molecule microarray, residues 1-88, 635 nm (AID 1129)
- condition_notes: small-molecule microarray binding, fluorescence 635 nm; higher = more signal
attribute_measured: composite z-score
Number only, no unit.

Before answering, review these 10 worked examples.
Using the record for `C=CC[C@@H]1C=C[C@H](ON=C[C@@H](OC)[C@H](C)C=CCC(=O)OC)[C@@H](CO)O1` , report its composite z-score.
0.296

Using the record for `C=CC[C@@H]1C=C[C@H](ON=C2c3cc(OC)ccc3O[C@H](c3cccc(OC)c3)[C@H]2O)[C@@H](CO)O1` , report its composite z-score.
-0.133

Using the record for CCOc1ccc(N2C(=O)/C(=C/C=C/c3ccccc3OC)S(=O)(=O)C2c2cccc([N+](=O)[O-])c2)cc1 (stereo not given) , report its composite z-score.
0.339

Using the record for CC(C)(C)N1CC=CC23O[C@@H]4C=CCCOC(=O)C4[C@H]2C(=O)N(CCCCCO)[C@@H]3C1=O (stereo not given in full) , report its composite z-score.
0.233

Using the record for `CCCCCCc1nc(CCCc2cc3c(c(CCCCCC)n2)[Si](C(C)C)(C(C)C)O[C@H]3c2ccccc2)cc2c1[Si](C(C)C)(C(C)C)O[C@H]2c1ccccc1` , report its composite z-score.
-0.526

Using the record for `COC(=O)c1c(CC[C@@H](CO)NC(=O)N[C@H](Cc2ccccc2)Cn2cc(-c3ccccc3N)nn2)oc(C(C)=O)c1C(=O)OC` , report its composite z-score.
1.17

Using the record for `CCCNC(=O)[C@@H]1c2ccccc2C(=O)N(c2ccc(C)cn2)[C@H]1c1ccc(CO)cc1` , report its composite z-score.
-0.38

Using the record for CCOC(=O)[C@H](Cc1ccccc1)NC(=O)CCC1CC(OC(=O)NCc2ccc3c(c2)OCO3)CC2(CCCC(COC(=O)NCc3cccc(C(F)(F)F)c3)O2)O1 (stereo not given in full) , report its composite z-score.
0.355

Using the record for `COC(=O)[C@@]1(Cc2ccc(OC)cc2)[C@H]2c3cc(C(=O)N4CCCC4)n(Cc4cc(F)c(F)c(F)c4)c3C[C@H]2CN1C(=O)c1ccccc1` , report its composite z-score.
1.26

Using the record for `CC(=O)OC[C@H]1O[C@@H](ON=C(C)CCN2CCc3nc(-c4ccccc4)c(-c4ccccc4)cc3C2)[C@H](OC(C)=O)[C@@H](OC(C)=O)[C@@H]1OC(C)=O` , report its composite z-score.
1.11

---
Using the record for `CC(CCC(=O)OC[C@H]1O[C@H](C#Cc2ccccc2)C=C[C@@H]1Oc1ccc(C)cc1)=NO[C@@H](C)c1cn([C@H](CO)Cc2ccccc2)nn1` , report its composite z-score.
0.0769

Using the record for `C[C@@H]1CC[C@H]2C(=O)O[C@H](COc3ccc(C(C)(C)C)cc3)CN2[C@H]1c1ccc(Br)cc1` , report its composite z-score.
-0.701

Using the record for `C#CCCCON=C1C[C@@H](O)[C@@H](O)[C@@H]2[C@@H]3C(=O)N(CCC(=O)OCC)C(=O)[C@@H]3CC[C@@H]12` , report its composite z-score.
-0.0592

Using the record for `O=C1[C@H]2[C@H]3[C@H](O)[C@H](O)CC(=NOCc4ccccc4)[C@H]3CC[C@H]2C(=O)N1c1ccc(F)cc1F` , report its composite z-score.
-0.0368

Using the record for `C[C@H](c1ccccc1)N1C(=O)[C@H]2[C@H]3[C@H](O)[C@H](O)CC(=O)[C@@H]3CC[C@H]2C1=O` , report its composite z-score.
-0.0909

---

- test_description: binders of probe aFGF10 on microarray, primary screen, stem cell growth factor project, biochemical, small-molecule microarray, fluorescence 635/667 (AID 1071);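 note: score merges 667 nm spot intensity and signal to noise from triplicate slides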
- condition_notes: higher = more signal
Y means recorded composite z-score is 0.1 or above; N means it is below 0.1.

Has CCc1cc2c(nc1CC)CCN(CCC(C)=NOC(C)CN1CCCc3nc(C)c(C)cc31)C2 (stereo unspecified) a recorded composite z-score greater than or equal to 0.1?
Y

Has `CC(C)(C)N1C(=O)[C@H]2[C@H]3[C@H](O)[C@H](O)CC(=NO[C@@H]4O[C@H](CO)[C@@H](O)[C@H](O)[C@H]4O)[C@@H]3CC[C@H]2C1=O` a recorded composite z-score greater than or equal to 0.1?
Y

Has `COCCCNC(=O)[C@@]1(CCS(=O)(=O)c2ccccc2)N=C(c2ccc(OCCCO)cc2)O[C@H]1c1ccccc1` a recorded composite z-score greater than or equal to 0.1?
Y

---
Has `C[C@H](c1ccccc1)N1C(=O)[C@H]2[C@@H]3C(=CC[C@H]2C1=O)C(=O)[C@H]1O[C@H]1[C@H]3O` a recorded composite z-score greater than or equal to 0.1?
Y

Has `[N-]=[N+]=Nc1ccccc1C[C@@]1(C(N)=O)N=C(c2ccc(OCCCO)cc2)O[C@@H]1c1ccccc1` a recorded composite z-score greater than or equal to 0.1?
Y

Has CC1CC/C=C\[C@H]2OC34C=CCN(Cn5nnc6ccccc65)C(=O)[C@H]3N(CCO)C(=O)[C@@H]4C2C(=O)O1 (stereo partly specified) a recorded composite z-score greater than or equal to 0.1?
N

---

- target_under_test: Fibroblast growth factor 2 (Homo sapiens) (UniProt P09038)
- Sequence (P09038 whole entry, looked up): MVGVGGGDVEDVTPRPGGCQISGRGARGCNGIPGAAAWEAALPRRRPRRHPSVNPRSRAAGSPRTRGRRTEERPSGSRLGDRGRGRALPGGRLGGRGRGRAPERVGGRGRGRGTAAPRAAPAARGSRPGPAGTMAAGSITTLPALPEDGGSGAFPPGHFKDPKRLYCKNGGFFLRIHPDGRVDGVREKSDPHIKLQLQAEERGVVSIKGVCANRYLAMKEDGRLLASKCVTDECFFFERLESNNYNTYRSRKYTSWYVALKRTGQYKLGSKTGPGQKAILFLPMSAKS
- test_description: FGF2 binders on small-molecule microarrays, primary screen, biochemical, small-molecule microarray, 635/667 nm fluorescence (AID 1133)
- condition_notes: small-molecule microarray binding, FGF2, fluorescence 635/667; higher = more signal
attribute_measured: composite z-score
Number only, no unit.

Before answering, review these 3 worked examples.
Using the record for COC(=O)C1=CCC(c2cccc(Cl)c2)O1 (centres undefined) , report its composite z-score.
-0.473

Using the record for `CCOC(=O)CCN1C(=O)[C@H]2[C@H]3[C@H](O)C=CC(=O)[C@@H]3CC[C@H]2C1=O` , report its composite z-score.
0.49

Using the record for `Cc1ccc(S[C@]2(C(=O)O)CC(=O)N(Cc3ccccc3)[C@@H]2c2ccc(CO)cc2I)cc1` , report its composite z-score.
-0.697

Next compound, please.
Using the record for `C#CCCCON=C1C[C@@H](O)[C@@H](O)[C@@H]2[C@@H]3C(=O)N(Cc4ccccc4)C(=O)[C@@H]3CC[C@H]12` , report its composite z-score.
0.171

Values were extracted from PubChem BioAssay.
